target: huCD28 (human, UniProt P10747 19-152, limits assumed); assay: SPR, OAA format
metric: kon (M⁻¹ s⁻¹)
The answer is to be given in M⁻¹ s⁻¹; state only the numeric part.

Examples with answers:
- binder: "v37897 (antibody, V domains shown, OAA format as v34891; also called huTN228 V1087F (VH) OAA) VH: QVQLQESGPGLVKPSETLSLTCAVSGFSLTSYGVHWIRQPPGKGLEWLGVIWPGGGTNFNSALMSRLTISEDTSKNQFSLKLSSVTAADTAVYYCARDRAYGNYLYAMDYWGQGTLVTVSS VL: DIQMTQSPSSLSASVGDRVTITCRASESVEYYVTSLMQWYQQKPGKAPKLLIYAASNVDSGVPSRFSGSGSGTDFTLTISSLQPEDIATYYCQQSRKVPFTFGGGTKVEIK"
  unit.annotation: "M⁻¹ s⁻¹"
  kon: 63000
- binder: "v37843 (antibody, V domains shown, OAA format as v34891; also called huTN228 T1035A (VH) OAA) VH: QVQLQESGPGLVKPSETLSLTCAVSGFSLASYGVHWIRQPPGKGLEWLGVIWPGGGTNFNSALMSRLTISEDTSKNQVSLKLSSVTAADTAVYYCARDRAYGNYLYAMDYWGQGTLVTVSS VL: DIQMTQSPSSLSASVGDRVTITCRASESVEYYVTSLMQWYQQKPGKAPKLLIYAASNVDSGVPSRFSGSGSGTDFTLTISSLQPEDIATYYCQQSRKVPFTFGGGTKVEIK"
  unit.annotation: "M⁻¹ s⁻¹"
  kon: 47100
- binder: "v37869 (antibody, V domains shown, OAA format as v34891; also called huTN228 V1035A (VL) OAA) VH: QVQLQESGPGLVKPSETLSLTCAVSGFSLTSYGVHWIRQPPGKGLEWLGVIWPGGGTNFNSALMSRLTISEDTSKNQVSLKLSSVTAADTAVYYCARDRAYGNYLYAMDYWGQGTLVTVSS VL: DIQMTQSPSSLSASVGDRVTITCRASESVEYYATSLMQWYQQKPGKAPKLLIYAASNVDSGVPSRFSGSGSGTDFTLTISSLQPEDIATYYCQQSRKVPFTFGGGTKVEIK"
  unit.annotation: "M⁻¹ s⁻¹"
  kon: 67700

## Task Suppose we examine the binder v37845 (antibody, V domains shown, OAA format; also called huTN228 Y1037A (VH) OAA) VH: QVQLQESGPGLVKPSETLSLTCAVSGFSLTSAGVHWIRQPPGKGLEWLGVIWPGGGTNFNSALMSRLTISEDTSKNQVSLKLSSVTAADTAVYYCARDRAYGNYLYAMDYWGQGTLVTVSS VL: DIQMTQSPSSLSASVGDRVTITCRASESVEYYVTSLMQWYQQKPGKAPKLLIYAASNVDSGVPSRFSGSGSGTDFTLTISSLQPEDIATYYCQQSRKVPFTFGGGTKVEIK ; what kon value has been reported?
## Result 56600
